Let's look at some compounds and their measured IC50.
# Target or system: IGFR-1 (Homo sapiens, UniProt P08069)
# Construct: Kinases are expressed as either kinase domains or full length constructs; made in house
# Sequence (P08069 31-1367): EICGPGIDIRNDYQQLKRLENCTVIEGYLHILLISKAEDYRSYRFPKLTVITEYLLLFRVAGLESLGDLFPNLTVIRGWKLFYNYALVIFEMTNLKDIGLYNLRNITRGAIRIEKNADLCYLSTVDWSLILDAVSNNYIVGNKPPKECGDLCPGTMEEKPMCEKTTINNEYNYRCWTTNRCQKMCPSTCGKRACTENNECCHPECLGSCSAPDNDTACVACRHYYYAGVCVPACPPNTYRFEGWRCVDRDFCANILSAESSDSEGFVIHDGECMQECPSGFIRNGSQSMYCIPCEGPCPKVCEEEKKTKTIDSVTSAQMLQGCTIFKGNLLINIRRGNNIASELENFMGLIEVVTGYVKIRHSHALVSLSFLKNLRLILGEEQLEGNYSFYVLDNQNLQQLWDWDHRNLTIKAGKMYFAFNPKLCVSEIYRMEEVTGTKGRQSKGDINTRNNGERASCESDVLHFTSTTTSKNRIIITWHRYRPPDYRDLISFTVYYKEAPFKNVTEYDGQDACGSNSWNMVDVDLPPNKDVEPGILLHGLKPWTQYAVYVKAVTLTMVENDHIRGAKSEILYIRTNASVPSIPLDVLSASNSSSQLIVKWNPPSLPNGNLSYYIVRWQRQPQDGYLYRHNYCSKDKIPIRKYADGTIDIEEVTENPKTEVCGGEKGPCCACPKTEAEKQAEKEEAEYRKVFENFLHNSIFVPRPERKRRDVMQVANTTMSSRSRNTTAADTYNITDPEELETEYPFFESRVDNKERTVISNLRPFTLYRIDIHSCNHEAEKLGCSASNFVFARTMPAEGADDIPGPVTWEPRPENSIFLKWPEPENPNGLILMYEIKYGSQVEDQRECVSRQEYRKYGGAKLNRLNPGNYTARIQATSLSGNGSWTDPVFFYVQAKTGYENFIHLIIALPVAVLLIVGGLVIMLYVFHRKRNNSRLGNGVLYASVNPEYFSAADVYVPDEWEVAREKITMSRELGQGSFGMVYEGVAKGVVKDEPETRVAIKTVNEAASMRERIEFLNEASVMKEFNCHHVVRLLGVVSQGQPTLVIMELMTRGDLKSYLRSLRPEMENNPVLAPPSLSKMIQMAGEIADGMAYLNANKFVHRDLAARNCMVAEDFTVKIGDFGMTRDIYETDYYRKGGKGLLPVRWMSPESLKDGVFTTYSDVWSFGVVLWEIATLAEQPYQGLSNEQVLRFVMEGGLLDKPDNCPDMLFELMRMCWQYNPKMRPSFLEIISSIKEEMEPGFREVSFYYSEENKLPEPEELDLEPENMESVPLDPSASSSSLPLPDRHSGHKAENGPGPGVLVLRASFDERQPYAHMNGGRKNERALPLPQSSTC
# Measurement protocol: Kinase inhibition assay (33P transfer), IGFR-1
# Assay type: biochemical
# Reported conditions: Table 2, kinase inhibition class

The cases that follow already have their IC50 on record.
[
  {
    "Smiles": "COc1cc(Nc2ncnc(N(CC(=O)OC(C)(C)C)c3ccc(Cl)cc3)n2)cc(OC)c1OC",
    "IC50": "> 8.96 µM"
  },
  {
    "Smiles": "N#Cc1ccc(Nc2ncnc(-c3cccs3)n2)cc1",
    "IC50": "> 16.1 µM"
  },
  {
    "Smiles": "COc1cc(Nc2ncnc(Nc3ccc(N(C)C)cc3)n2)cc(OC)c1OC",
    "IC50": "< 1.01 µM"
  },
  {
    "Smiles": "Nc1nc2ccccc2n1-c1ncnc(Cl)n1",
    "IC50": "> 18.2 µM"
  }
]

Read the next record carefully.
Name the reported IC50 value associated with the compound COCCOc1cc(Nc2ncnc(Nc3ccc(C)c(O)c3)n2)ccc1OC
1.01 to 6.04 µM
